tested on: K-562 leukemia; assay: NCI tumour cell line growth inhibition, 48 h
Listed here are molecules together with their documented TGI.

Past entries and their recorded results:
{"Molecule": "CN(C)c1ncc(-c2c[nH]c3ccccc23)nc1-c1c[nH]c2ccccc12", "TGI": "8.48 µM"}
{"Molecule": "c1csc(-c2cc(-c3ccsc3)c(-c3cccs3)s2)c1", "TGI": "> 100 µM"}
{"Molecule": "CO/N=C(\\COc1ccc2c(=O)cc(-c3ccccc3)oc2c1)c1ccc(OC)cc1", "TGI": "> 100 µM"}

Now take the following molecule into account.
Specify the recorded TGI for O=c1cc(-c2ccccc2)oc2cc(OCc3cn(Cc4ccc(F)cc4)nn3)cc(O)c12 , system: K-562 leukemia.
> 100 µM

* * *

tested on: T-47D breast; assay: NCI tumour cell line growth inhibition, 48 h
Listed here are compounds together with their documented TGI.

The examples below pair each entry with its known result.
{"Compound": "COc1cc([N+](=O)[O-])c(S(=O)(=O)O)cc1-n1nc(-c2ccccc2)n[n+]1-c1cc(S(=O)(=O)[O-])c([N+](=O)[O-])cc1OC", "Experimental endpoint": "TGI", "Reported measurement": "> 100 µM"}
{"Compound": "COC(=O)c1c(C)cccc1C1CN=NC12Cc1c(C)cccc1C2=O (stereo unspecified)", "Experimental endpoint": "TGI", "Reported measurement": "> 100 µM"}

As a next step, examine the compound that follows.
Identify measured TGI associated with CC(C)Nc1n[nH]c(=O)n1C(C)C
> 100 µM

* * *

test system: CCRF-CEM leukemia; test: NCI tumour cell line growth inhibition, 48 h
Quick reference for TGI among some molecules

{"Molecule": "N#CC1(C#N)C(c2ccccc2)NC23CCCCC2C1(C#N)C(=O)N3 (centres undefined)", "Reported measurement": "> 100 µM"}
{"Molecule": "COc1cc([N+](=O)[O-])c(S(=O)(=O)O)cc1-n1nc(-c2ccccc2)n[n+]1-c1cc(S(=O)(=O)[O-])c([N+](=O)[O-])cc1OC", "Reported measurement": "> 100 µM"}
{"Molecule": "COC(=O)c1c(C(=O)OC)c(C(=O)OC)c(C(=O)OC)c1C(=O)OC", "Reported measurement": "> 100 µM"}

For CCRF-CEM leukemia, give the measured TGI of the entry CC(=O)OCC1OC(Sc2nc(-c3ccc(C)cc3)c(C#N)c(=O)n2C2OC(COC(C)=O)C(OC(C)=O)C(OC(C)=O)C2OC(C)=O)C(OC(C)=O)C(OC(C)=O)C1OC(C)=O (centres undefined)
> 100 µM

* * *

system: NCI-H226 lung; test: NCI tumour cell line growth inhibition, 48 h; in the data active = GI50 below about 0.43 µM; inactive = the rest
Outcome (select one): t (active), f (inactive)

Would you please look over these solved cases?
{"Compound": "Cc1cc(C)c(S(=O)(=O)Oc2ccccc2[N+](=O)[O-])c(C)c1", "Measurement target": "NCI-H226 lung", "Assigned category": "f"}
{"Compound": "COc1cc2c(cc1O)CCN[C@@]21CS[C@H]2c3c(OC(C)=O)c(C)c4c(c3C(COC1=O)N1C2C2c3c(cc(C)c(OC)c3O)CC([C@@H]1O)N2C)OCO4 (stereo partly drawn)", "Measurement target": "NCI-H226 lung", "Assigned category": "t"}
{"Compound": "CCN(CC)CCNc1ccc(CO)c2sc3ccccc3c(=O)c12", "Measurement target": "NCI-H226 lung", "Assigned category": "f"}
{"Compound": "C[C@]1(O)CC(=O)[C@]2(O)C3=C(C=C[C@]2(O)C1)C(=O)c1c(O)cccc1C3=O", "Measurement target": "NCI-H226 lung", "Assigned category": "f"}

What outcome does the record of this test show for CC(C)(C)OC(=O)N(CCCn1c2c(c3ccccc3c1=O)C(=O)c1ccccc1-2)CCN(CCCn1c2c(c3ccccc3c1=O)C(=O)c1ccccc1-2)C(=O)OC(C)(C)C ?
f

Called result for COc1ccc(-n2nc(C)c3c(Nc4ccc(NC(=O)Nc5cc(C(F)(F)F)ccc5F)cc4)ncnc32)cc1
f

Look up the recorded call for COc1ccc(OC)c(-c2cn3nc(-c4c[nH]c5ccc(Br)cc45)sc3n2)c1 in this test.
f

Answer briefly: the call reported for CC(C)(C)c1ccc(NC(=O)c2cc(=O)c3ccccc3[nH]2)c(C(C)(C)C)c1O in this assay.
f

* * *

test system: OVCAR-4 ovarian; test: NCI tumour cell line growth inhibition, 48 h
Experimental endpoint: GI50

Worked set:
{"Compound": "CC(C)(C)OC(=O)N(CCCn1c2c(c3ccccc3c1=O)C(=O)c1ccccc1-2)CCN(CCCn1c2c(c3ccccc3c1=O)C(=O)c1ccccc1-2)C(=O)OC(C)(C)C", "Measurement target": "OVCAR-4 ovarian", "GI50": "> 50 µM"}
{"Compound": "CCCN(CCC)c1ccc(C=O)c(OC)c1", "Measurement target": "OVCAR-4 ovarian", "GI50": "19.4 µM"}
{"Compound": "O=C1c2ccccc2C(=O)c2c1c(NCCNCCO)c1cc[nH]c1c2NCCNCCO", "Measurement target": "OVCAR-4 ovarian", "GI50": "14.2 µM"}
{"Compound": "O=C(/C=C/c1ccccc1)c1ccc(O)c(CN2CCN(c3cc4c(cc3F)c(=O)c(C(=O)O)cn4C3CC3)CC2)c1", "Measurement target": "OVCAR-4 ovarian", "GI50": "16.7 µM"}
{"Compound": "CNC1=C(Br)C(=O)C2=C(C1=O)C1C3=C(C(=O)C=CC3=O)C2c2ccccc21 (stereo not drawn)", "Measurement target": "OVCAR-4 ovarian", "GI50": "1.76 µM"}

Look up and report measured GI50 for this entry: CC(C)(C)c1cc2c(OP(c3ccccc3)c3ccccc3)c(c1)Cc1cc(C(C)(C)C)cc(c1OP(c1ccccc1)c1ccccc1)Cc1cc(C(C)(C)C)cc(c1OP(c1ccccc1)c1ccccc1)Cc1cc(C(C)(C)C)cc(c1OP(c1ccccc1)c1ccccc1)C2
22 µM

Could you please provide reported GI50 for CCN(CCc1ccc(F)cc1)c1ccc(CO)c(Cl)c1 ? Thanks!
2.23 µM

Write down GI50 measured for item C[C@]1(O)CC(=O)[C@]2(O)C3=C(C=C[C@]2(O)C1)C(=O)c1c(O)cccc1C3=O
1.44 µM

* * *

# Lookup of reported TGI keyed by entry
system: HOP-92 NSCLC; experiment: NCI tumour cell line growth inhibition, 48 h
Hi! Could you send only the number? It should be in µM, unit omitted.

// below: answered molecules
{"Molecule": "CN(C)c1ncc(-c2c[nH]c3ccccc23)nc1-c1c[nH]c2ccccc12", "TGI [µM]": 8.33}
{"Molecule": "NC(N)=NS(=O)(=O)c1ccc(NC(=O)c2ccc(Cl)c3c(Nc4ccc(S(=O)(=O)N=C(N)N)cc4)c4ccccc4nc23)cc1", "TGI [µM]": 79.9}
{"Molecule": "CCOC(=O)NC(=O)c1cn(-c2ccc(CCOC(=O)CCCCCCCCC(=O)OCCc3ccc(-n4cc(C(=O)NC(=O)OCC)c(=O)[nH]c4=O)cc3)cc2)c(=O)[nH]c1=O", "TGI [µM]": 88.7}

Return value of TGI for input N=C(N)SC1c2ccccc2-c2cc([N+](=O)[O-])ccc21 (centres undefined) , no commentary.
33.5

* * *

tested on: NCI/ADR-RES ovarian; test: NCI tumour cell line growth inhibition, 48 h
Listing of recorded TGI by entry.
All answers are understood in µM, so give the number only.

Tell me TGI reported for COc1ncnc2c1ncn2C/C(Br)=C(\Br)CCl
18.9

Tell me TGI reported for COc1ccc(OC)c(-c2cn3nc(-c4c[nH]c5ccc(Br)cc45)sc3n2)c1
10.9

Provide measured TGI value, entry: O=c1c2ccccc2c(C=NCCNCCO)c2oc3ccccc3n12
26.7

* * *

system: IGROV1 ovarian; assay: NCI tumour cell line growth inhibition, 48 h; in the data active means GI50 below about 0.43 µM; inactive means the rest
Bench note: report the call from 1 for active, 0 for inactive

{"Compound": "CC(=O)OC1CC(C)c2c1ncnc2N1CCN(C(=O)OC(C)(C)C)CC1 (stereo not given)", "Assigned category": 0}
{"Compound": "COc1cc(/C=C\\c2cc(/C=C\\c3ccc(O)c(OC)c3)n(C(=O)Nc3ccc(C(F)(F)F)cc3)n2)ccc1O", "Assigned category": 0}
{"Compound": "COc1ccccc1NC(=O)N/C(N)=N/c1nc2ccccc2s1", "Assigned category": 1}

Tell me the assay call for C=C(C)[C@@H]1CC[C@]2(c3ncc(C)o3)CC[C@]3(C)[C@H](CC[C@@H]4[C@@](C)(CCC#N)[C@H](C(=C)C)CC[C@]43C)[C@@H]12 please.
0

Look up the recorded call for CC(C)NCCCNC1=C(Cl)C(=O)c2ccccc2C1=O in this test.
0

Per the assay record, what outcome was assigned to COc1ccc(S(=O)(=O)N2CCCCC2)cc1NC(=O)c1[nH]c(C)c2c1CCCCC2=O ?
0

Given CCOc1ccccc1N=C(NC(=O)CC)SC , state the outcome it received in this test.
0

Dear colleague, could you share the recorded outcome for COc1ccc(-n2nc(C)c3c(Nc4ccc(NC(=O)Nc5cc(C(F)(F)F)ccc5F)cc4)ncnc32)cc1 when you have a moment?
0

For this compound, state the assay outcome: CCC(=O)[O-].CCC(=O)[O-].N.N.N.N.[Co+3].[O-][Cl+3]([O-])([O-])[O-]
0

Fill in: this test's call for COc1ccc(OC)c(-c2cn3nc(-c4c[nH]c5ccc(Br)cc45)sc3n2)c1 is ___
0
